- Test system: LOXIMVI (Melanoma)
- ASSAY_COMMENT: combination Emax (second highest fraction inhibited in the dose matrix, 72 h); higher = more inhibition; extreme values may be limits of the assay
Rule: combination Emax of 0.4 or more gives Satisfied; anything lower gives Not satisfied.

Would you please look over these solved cases?
C=CCn1c(=O)c2cnc(Nc3ccc(N4CCN(C)CC4)cc3)nc2n1-c1cccc(C(C)(C)O)n1 [AZD1775] + C[C@@H]1COCCN1C2=NC(=NC(=C2)C3(CC3)[S@](=N)(=O)C)C4=C5C=CNC5=NC=C4 [AZD6738] (first compound max 1 µM, partner max 10 µM)    Satisfied
CC(=O)c1c(C)c2cnc(Nc3ccc(N4CCNCC4)cn3)nc2n(C2CCCC2)c1=O [Palbociclib] + Cn1cnc2c(F)c(Nc3ccc(Br)cc3Cl)c(C(=O)NOCCO)cc21 [Selumetinib] (first compound max 10 µM, 7x7, partner max 10 µM)    Satisfied
Cc1nc(Nc2ncc(C(=O)Nc3c(C)cccc3Cl)s2)cc(N2CCN(CCO)CC2)n1 [Dasatinib] + CC(=O)Nc1cccc(-n2c(=O)n(C3CC3)c(=O)c3c(Nc4ccc(I)cc4F)n(C)c(=O)c(C)c32)c1 [Trametinib] (first compound max 2 µM, 7x7, partner max 1 µM)    Satisfied
CN(CCO)CC[C@H](CSc1ccccc1)Nc1ccc(S(=O)(=O)NC(=O)c2ccc(N3CCC([C@@H](O)c4ccccc4-c4ccc(Cl)cc4)CC3)cc2)cc1S(=O)(=O)C(F)(F)F [AZD4320] + C=CCn1c(=O)c2cnc(Nc3ccc(N4CCN(C)CC4)cc3)nc2n1-c1cccc(C(C)(C)O)n1 [AZD1775] (first compound max 1 µM, partner max 1 µM)    Satisfied
CN(CCO)CC[C@H](CSc1ccccc1)Nc1ccc(S(=O)(=O)NC(=O)c2ccc(N3CCC([C@@H](O)c4ccccc4-c4ccc(Cl)cc4)CC3)cc2)cc1S(=O)(=O)C(F)(F)F [AZD4320] + Cc1cc2ncnn2cc1Nc1ncc2c(n1)n(C1CCOCC1)c(=O)n2C [AZD7648] (first compound max 1 µM, 7x7, partner max 10 µM)    Not satisfied
COc1cccc(OCCCN)c1-c1cc(Nc2cnc(C#N)cn2)n[nH]1 [Prexasertib] + Cc1cc2ncnn2cc1Nc1ncc2c(n1)n(C1CCOCC1)c(=O)n2C [AZD7648] (first compound max 1 µM, 7x7, partner max 10 µM)    Satisfied
CN(CCO)CC[C@H](CSc1ccccc1)Nc1ccc(S(=O)(=O)NC(=O)c2ccc(N3CCC([C@@H](O)c4ccccc4-c4ccc(Cl)cc4)CC3)cc2)cc1S(=O)(=O)C(F)(F)F [AZD4320] + CN(C)CCCOc1ccc(-c2ccc3ncc4c(c3c2)n(C2CCOCC2)c(=O)n4C)cn1 [AZD0156] (first compound max 1 µM, 7x7, partner max 1 µM)    Not satisfied
CCN(CCO)CCCOc1ccc2c(Nc3cc(CC(=O)Nc4cccc(F)c4)[nH]n3)ncnc2c1 [AZD2811] + O=C(c1cc(Cc2n[nH]c(=O)c3ccccc23)ccc1F)N1CCN(C(=O)C2CC2)CC1 [Olaparib] (first compound max 1 µM, 7x7, partner max 10 µM)    Not satisfied

Tell me whether combination Emax is at least 0.4 here: C[C@@H](c1ccc2nccn2c1)n1nnc2ncc(-c3cnn(C)c3)nc21 [Savolitinib] + Cc1c2c(nn1C)CSCc1cc(n(C)n1)CSc1cc(c3ccccc3c1)OCCCc1c(C(=O)O)n(C)c3c-2c(Cl)ccc13 [AZD5991] (first compound max 1 µM, 7x7, partner max 1 µM)
Not satisfied

Tell me whether combination Emax is at least 0.4 here: C=CCn1c(=O)c2cnc(Nc3ccc(N4CCN(C)CC4)cc3)nc2n1-c1cccc(C(C)(C)O)n1 [AZD1775] + CCc1c2c(nc3ccc(O)cc13)-c1cc3c(c(=O)n1C2)COC(=O)[C@]3(O)CC [SN-38] (first compound max 1 µM, partner max 0.3 µM)
Satisfied

Tell me whether combination Emax is at least 0.4 here: C[C@@H](Oc1cc(-c2cnn(C3CCNCC3)c2)cnc1N)c1c(Cl)ccc(F)c1Cl [Crizotinib] + Cn1cnc2c(F)c(Nc3ccc(Br)cc3Cl)c(C(=O)NOCCO)cc21 [Selumetinib] (first compound max 10 µM, 7x7, partner max 10 µM)
Satisfied

Tell me whether combination Emax is at least 0.4 here: Cc1cc2ncnn2cc1Nc1ncc2c(n1)n(C1CCOCC1)c(=O)n2C [AZD7648] + COc1cc([C@@H]2c3cc4c(cc3[C@@H](O[C@@H]3O[C@@H]5CO[C@@H](C)O[C@H]5[C@H](O)[C@H]3O)[C@H]3COC(=O)[C@H]23)OCO4)cc(OC)c1O [Etoposide] (first compound max 10 µM, 7x7, partner max 10 µM)
Satisfied
